Reported pIC50 against Prostaglandin G/H synthase 1 (Ovis aries, UniProt P05979), gathered from multiple publications, appears below.
pIC50: −log10 of the molar value.

CC(=O)Oc1ccccc1C(=O)OC(CO[N+](=O)[O-])CO[N+](=O)[O-]; < 4.00
COc1cc(C2CC(c3cc4ccccc4oc3=O)=NN2C(C)=O)cc(OC)c1OC (stereo not given); < 4.52
CS(=O)(=O)c1ccc(C2=C(c3ccccc3O)C(=O)OC2)cc1; < 3.60
CS(=O)(=O)c1ccc(-n2nnnc2-c2ccc([N+](=O)[O-])cc2)cc1; < 4.00

Problem: Provide the reported pIC50 (system: Prostaglandin G/H synthase 1 (Ovis aries, UniProt P05979)) for Cc1ccnc2c1Cc1cc(C(C)C(=O)O)ccc1O2 (stereo not given)
Result: < 4.00

----------
pIC50: −log10 of the molar value.
Literature pIC50 values, system: Prostaglandin G/H synthase 1 (Ovis aries, UniProt P05979).

C[C@]1(O)C[C@@H](CSC#N)O[C@@H](c2ccc(Br)cc2)C1; < 5.00
COC(=O)[C@H](Cc1ccc(O)cc1)n1cc(COc2nc(Cl)nc(N3CCOCC3)n2)nn1; < 5.00
CC(C)Cc1ccc(C(C)C(=O)OCO/N=[N+](\[O-])N(C)C)cc1 (stereo not given); < 4.00

Problem: Specify pIC50 for O=C(O)Cn1c2c(c3ccccc31)CN(C(=O)c1ccccc1)CC2 and stop.
Result: < 5.00

Problem: State its pIC50: OC[C@H]1C[C@](O)(c2ccc(F)cc2)[C@@H](c2ccc(F)cc2)O1
Result: < 5.00

----------
IC50 values for Prostaglandin G/H synthase 1 (Ovis aries, UniProt P05979), compiled from several publications.

Example compounds with recorded IC50:
COc1ccc(NC(=O)c2nc(-c3ccccc3)n(-c3ccc(S(N)(=O)=O)cc3)n2)cc1; > 1000 µM
Cc1ccc2c(c1)c1c(n2CC(=O)O)CCN(C(=O)c2ccccc2)C1; > 10 µM
CC(=O)Oc1cccc(C2=C(c3ccc(S(C)(=O)=O)cc3)COC2=O)c1; > 100 µM

Proceed to the following item.
Problem: Recall the reported IC50 of Cc1ccc(-c2cc(C(F)(F)F)nn2-c2ccc(S(C)(=O)=O)cc2)cc1 when tested on Prostaglandin G/H synthase 1 (Ovis aries, UniProt P05979).
Result: > 500 µM

----------
Compiled record: IC50 values for Prostaglandin G/H synthase 1 (Ovis aries, UniProt P05979) across several sources.
# target_of_assay: Prostaglandin G/H synthase 1 (Ovis aries, UniProt P05979)
# Sequence (P05979 whole entry): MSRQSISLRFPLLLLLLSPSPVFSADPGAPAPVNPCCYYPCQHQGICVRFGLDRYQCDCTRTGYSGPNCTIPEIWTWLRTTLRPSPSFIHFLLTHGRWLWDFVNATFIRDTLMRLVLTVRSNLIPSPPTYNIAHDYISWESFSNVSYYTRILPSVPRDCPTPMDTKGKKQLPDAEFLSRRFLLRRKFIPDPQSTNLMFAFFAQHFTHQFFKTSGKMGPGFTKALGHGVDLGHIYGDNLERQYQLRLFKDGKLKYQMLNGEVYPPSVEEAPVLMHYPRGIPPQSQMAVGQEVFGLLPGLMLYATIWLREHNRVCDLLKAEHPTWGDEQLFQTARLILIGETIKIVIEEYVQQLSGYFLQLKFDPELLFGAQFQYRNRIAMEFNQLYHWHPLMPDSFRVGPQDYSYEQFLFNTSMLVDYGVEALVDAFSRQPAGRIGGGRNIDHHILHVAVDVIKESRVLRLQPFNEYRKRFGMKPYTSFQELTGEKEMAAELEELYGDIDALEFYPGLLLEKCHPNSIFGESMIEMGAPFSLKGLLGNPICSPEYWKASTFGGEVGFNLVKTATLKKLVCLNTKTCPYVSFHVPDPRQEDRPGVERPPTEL

Use the examples below as a reference point.
Cc1ccc(-c2sccc2-c2ccc(S(C)(=O)=O)cc2)cc1; > 1000 µM
CS(=O)(=O)c1ccc(-c2nnnn2-c2ccc(O)cc2)cc1; > 500 µM
CCCSc1nnc(-c2cc(C(C)(C)C)c(O)c(C(C)(C)C)c2)o1; > 20 µM

Problem: Note IC50 for the compound shown: N#Cc1ccc2c(C3CC(C(F)(F)F)=NN3c3ccc(S(N)(=O)=O)cc3)c[nH]c2c1 (stereo unspecified)
Result: > 100 µM

Problem: Write down IC50 measured for item O=C(O)Cn1c2c(c3ccccc31)CN(C(=O)C1CCCCC1)CC2
Result: > 10 µM

Problem: Quickly give me recorded IC50 for Clc1ccc(-c2nnc(-c3cn(-c4ccccc4)nc3-c3ccc(Cl)cc3)o2)cc1
Result: > 100 µM

Problem: Return IC50 (reported value) for this compound: CSc1cc(-c2ccccc2)c(-c2ccc(S(C)(=O)=O)cc2)c(=O)o1
Result: > 100 µM
